All values here come from patent US20260315604A1.

Biological target: Human OTUB1 wild-type (Homo sapiens, UniProt Q96FW1)
Construct: His tag (N); made in house; host or cells: E. coli BL21-CodonPlus (DE3)-RIPIL
Sequence (Q96FW1 whole entry): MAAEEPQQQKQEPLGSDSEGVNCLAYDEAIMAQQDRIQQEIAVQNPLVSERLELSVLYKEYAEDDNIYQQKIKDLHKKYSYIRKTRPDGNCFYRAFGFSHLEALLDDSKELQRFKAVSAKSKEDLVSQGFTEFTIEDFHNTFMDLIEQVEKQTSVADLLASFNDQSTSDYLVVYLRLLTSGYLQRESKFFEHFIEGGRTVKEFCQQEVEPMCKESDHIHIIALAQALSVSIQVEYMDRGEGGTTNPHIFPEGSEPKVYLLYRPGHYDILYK
Assay: Covalent modification of OTUB1 (adduct formation), mass spectrometry-based assay (OTUB1 covalent binders; selected CFTR or cGAS based bivalent compounds)
Type: binding
Conditions: covalent adduct formation with OTUB1 protein
Assay Endpoint: % of OTUB1 modified (%)
Report the value in % with no unit label.

Example entries begin here.
CN(C)C/C=C/C(=O)N1CC2(CC(C(=O)Nc3cc4ccccc4s3)C2)C1: 25
Cc1cnc(N2CC3CCC(C2=O)N3C(=O)/C=C/CN(C)C)s1 (stereo not drawn): 95
COCc1ccc(C(=O)N2CC3CC(C2)N3C(=O)/C=C/CN(C)C)s1: 45
CC(=O)N1CC2CC(C1)N2C(=O)C#CCN(C)C: 100
CN(C)C/C=C/C(=O)N1C2CC1CN(C(=O)C1CCCC1)C2: 47
Cc1cccc(N2CCN(C(=O)C#C[Si](C)(C)C)CC2=O)c1: 100
Cc1ccc(C(=O)NC2CN(C(=O)C#CCN(C)C)C2)s1: 73
Cc1ccc(C(=O)Nc2ccc(NC(=O)/C=C/CN(C)C)cc2)s1: 20

Attention now turns to another entry.
Request: May I ask what % of OTUB1 modified has been recorded for CN(C)C/C=C/C(=O)N1C2CC1CN(C(=O)C1CCC1)C2 ?
Result: 43
